- assay.overview: HUVEC growth inhibition – cell-based, human, primary screen (AID 575);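 further: 100% = median of untreated cell wells with 0.1% DMSO on each plate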
- setup.conditions: HUVEC proliferation, CellTiter-Glo luminescence, 72 h; at 10 µM; hits give low values
property.name: viability (%)
The response must be a number in % with no trailing unit.

{"molecule": "Cn1c(=O)[nH]c(=O)c2[nH]c(NCCCN3CCOCC3)nc21", "unit.spec": "%", "readout.number": 92.1}

Challenge: # lookup: viability of `CCCn1cc(SCC(=O)NCc2ccco2)c2ccccc21`
Response given: 92.3

Challenge: # lookup: viability of `Clc1cc2c(c(Cn3cnc4ccccc43)c1)OCOC2`
Response given: 87.8

Challenge: # lookup: viability of `COc1ccc(-c2noc(CN3CCC(Cc4ccccc4)CC3)n2)cc1`
Response given: 87.5

Challenge: # lookup: viability of COc1cc(OC)cc(OCC(O)Cn2cnc(-c3ccccc3)c2)c1 (stereo unspecified)
Response given: 88

Challenge: # lookup: viability of COc1ccccc1N1CCN(C(=O)C2CCCO2)CC1 (stereo unspecified)
Response given: 90

src = PubChem BioAssay
